Provenance of the data: the supplement of paper PMC8967900

test system: PF-382; experiment: selective drug sensitivity score (sDSS, relative to normal bone marrow) (sDSS (score)); higher = more potent and effective on the cell line relative to normal bone marrow cells; details: 72 h;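 further: ALL cell lines in 384-well plates, five doses spanning 10,000-fold, each plate scaled between vehicle and 100 µmol/L benzalkonium chloride controls, sDSS an adapted area-under-curve metric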
Consider the following compounds; for each one, report its selective drug sensitivity score.
One number for each entry.

Would you please look over these solved cases?
COMPOUND | TARGET OR TEST SYSTEM | selective drug sensitivity score
C[C@@H]1CCN(C(=O)CC#N)C[C@@H]1N(C)c1ncnc2[nH]ccc12 [Tofacitinib] (top concentration 5000 nM) | PF-382 | -7.36
Cc1ccc(NS(=O)(=O)c2cccc(C#N)c2)c2[nH]cc(C#N)c12 [E7820] (top concentration 50000 nM) | PF-382 | 10.2
CC(=O)c1c(C)c2cnc(Nc3ccc(N4CCNCC4)cn3)nc2n(C2CCCC2)c1=O [Palbociclib] (top concentration 10000 nM) | PF-382 | 5.48

Kindly review the next compound as well.
Data request, read-out selective drug sensitivity score, for C[C@H]1C=C2C(=O)O[C@H]3CC[C@@H](C1)[C@@]23O [Galiellalactone] (top concentration 25000 nM) 4.16
